From: patent US10351575B2

molecular target: PKD2 (Homo sapiens (Human)); experiment: KinaseProfiler off-target kinase profiling; assay type: biochemical; conditions: 10 μM, ATP near Km
Sequence (Q9BZL6 whole entry): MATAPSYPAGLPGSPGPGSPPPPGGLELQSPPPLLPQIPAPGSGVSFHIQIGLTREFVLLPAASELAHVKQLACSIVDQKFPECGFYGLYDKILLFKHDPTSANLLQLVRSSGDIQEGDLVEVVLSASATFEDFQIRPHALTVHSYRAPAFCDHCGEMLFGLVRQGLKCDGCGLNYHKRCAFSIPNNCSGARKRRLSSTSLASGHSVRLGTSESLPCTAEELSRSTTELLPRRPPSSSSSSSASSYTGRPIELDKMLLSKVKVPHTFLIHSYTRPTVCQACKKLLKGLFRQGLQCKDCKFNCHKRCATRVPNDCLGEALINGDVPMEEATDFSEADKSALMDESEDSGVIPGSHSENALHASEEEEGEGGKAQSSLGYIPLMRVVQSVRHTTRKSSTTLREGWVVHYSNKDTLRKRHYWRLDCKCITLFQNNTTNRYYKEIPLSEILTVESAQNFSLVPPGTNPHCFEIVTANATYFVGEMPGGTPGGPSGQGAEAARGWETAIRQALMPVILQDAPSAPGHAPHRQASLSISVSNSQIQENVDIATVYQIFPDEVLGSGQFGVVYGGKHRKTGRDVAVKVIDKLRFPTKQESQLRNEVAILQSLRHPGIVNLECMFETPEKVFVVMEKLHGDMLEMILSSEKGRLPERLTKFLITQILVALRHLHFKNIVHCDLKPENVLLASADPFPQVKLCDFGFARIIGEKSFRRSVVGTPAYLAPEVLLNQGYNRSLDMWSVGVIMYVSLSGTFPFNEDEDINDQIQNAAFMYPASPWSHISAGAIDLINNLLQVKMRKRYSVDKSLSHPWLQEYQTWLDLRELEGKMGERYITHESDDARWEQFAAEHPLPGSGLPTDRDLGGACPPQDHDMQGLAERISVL
EXPERIMENTAL ENDPOINT: Avg. POC (POC)

INSERT INTO results (compound, observed_result) VALUES
  ('Cc1c(-c2cnn(C)c2)nn(-c2ccccc2)c1NC(=O)N[C@H]1CCCc2ccccc21', 102),
  ('Cc1c(-c2cnn(C)c2)nn(-c2ccccc2)c1NC(=O)NC1CCOc2cc(F)ccc21 (stereo not shown)', 94),
  ('Cc1c(-c2ccc(=O)n(C)c2)nn(-c2ccccc2)c1NC(=O)NC1CN(CC(F)(F)F)Cc2ccccc21 (stereo not shown)', 102),
  ('COCc1ccc2c(c1)C(NC(=O)Nc1c(C)c(-c3cnn(C)c3)nn1-c1ccccc1)COC2 (stereo not shown)', 110.5);
